Sourced from the supplement of paper PMC9694430

Test system: LOC_OS07G06570-cb004;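 further: purified Escherichia coli-expressed rice kinase domain construct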
Test: thermal shift delta Tm vs DMSO control; higher = stronger stabilization (binding)
Settings: 12.5 µM; protein concentration 2 µM
Structures can show the parent of a compound that is named as a salt.
measurementType: thermal shift delta Tm (°C)

- Cn1cc(-c2ccc(F)c(C(F)(F)F)c2)nc1C1CCN(c2ncnc3[nH]ncc23)CC1: 0.72
- COc1ccc(S(=O)(=O)N(CCO)c2ccccc2CN(C)C/C=C/c2ccc(Cl)cc2)cc1 [KN-93 Phosphate]: 1.18
- COc1cc2ncnc(Nc3ccc(Cl)cc3F)c2cc1OC: 1.37
- CN1CC[C@H](c2c(O)cc(O)c3c(=O)cc(-c4ccccc4Cl)oc23)[C@H](O)C1 [Flavopiridol (Alvocidib)]: 0.96
- O=C(NC[C@H](O)CO)c1ccncc1Nc1ccc(I)cc1F: 0.95
- Cc1cc(Nc2cc(CN3CCOCC3)c3nc(C)c(Cc4ccc(Cl)cc4F)n3n2)n[nH]1: 0.22
- O=C(Cc1ccc(-c2ccc(OCCN3CCOCC3)cc2)cn1)NCc1ccccc1: 0.25
- Cn1c(=O)c(F)c(Nc2ccc(I)cc2F)c2c(=O)n(C[C@@H](O)CO)cnc21: 0.33
- CNc1nc(Nc2cnn([C@H]3CCN(C4COC4)C[C@@H]3F)c2Cl)ncc1C(F)(F)F: 0.89
- O=C(O)CCC(=O)Nc1ccc(Br)cn1 [Bikinin]: 0.42
- CNC(=O)c1cc(COc2nnc(Nc3ccc(Cl)cc3)c3ccoc23)ccn1 [Telatinib]: 0.17
- CCN(CC)CCNC(=O)c1c(C)[nH]c(/C=C2\C(=O)Nc3ccc(F)cc32)c1C [Sunitinib]: 0.72
- Cc1ccc(NC(=O)c2cccc(C(C)(C)C#N)c2)cc1Nc1ccc2ncn(C)c(=O)c2c1: 0.75
- FC(F)(F)c1ccc(/C=C/c2nc(COc3ccc(CCCCn4ccnn4)cc3)co2)cc1 [Mubritinib (TAK 165)]: 0.47
- CCc1cc(Nc2nccc(-c3c(-c4ccc(OC)c(C(=O)Nc5c(F)cccc5F)c4)nc4ccccn34)n2)c(OC)cc1N1CCC(N2CCN(S(C)(=O)=O)CC2)CC1: 0.75
- CC[C@@H]1C(=O)N(C)c2cnc(Nc3ccc(C(=O)N[C@H]4CC[C@H](N5CCN(CC6CC6)CC5)CC4)cc3OC)nc2N1C(C)C [Volasertib (BI 6727)]: 0.62
- CCN(CC)CCCCNc1ncc2cc(-c3cc(OC)cc(OC)c3)c(NC(=O)NC(C)(C)C)nc2n1: 1.02
- CC(C)n1ncnc1-c1cn2c(n1)-c1ccc(O[C@@H](C)C(N)=O)cc1OCC2: 0.88
- CCCCOc1c(C(=O)c2c(F)cc(C)cc2F)c[nH]c2nncc1-2: 0.61
- Cc1ccc(Nc2nccc(N(C)c3ccc4c(C)n(C)nc4c3)n2)cc1S(N)(=O)=O [Pazopanib]: 1.66
- N#CC[C@H](C1CCCC1)n1cc(-c2ncnc3[nH]ccc23)cn1: 1.16
- C=CC(=O)N1CCN(CCCn2c(=O)c(-c3c(Cl)c(OC)cc(OC)c3Cl)cc3cnc(NC)nc32)CC1: 0.73
- Cc1ccc(S(=O)(=O)/C=C/C#N)cc1: 1.13
- C[C@H]1CNCCCN1S(=O)(=O)c1cccc2cncc(F)c12 [Ripasudil (K-115) hydrochloride dihydrate]: 0.19
- C[C@@H](NC(=O)c1ncnc(N)c1Cl)c1ncc(C(=O)Nc2cc(C(F)(F)F)c(Cl)cn2)s1: 1.4
- O=c1cc(-c2ccccc2)oc2c(O)c(O)ccc12 [7,8-Dihydroxyflavone]: 3.28
- CC(C)(C)c1nc(-c2cccc(NS(=O)(=O)c3c(F)cccc3F)c2F)c(-c2ccnc(N)n2)s1: 0.8
- NC(=O)c1ncn([C@@H]2O[C@H](CO)[C@@H](O)[C@H]2O)c1N [AICAR (Acadesine)]: 1.07
- O=C1c2ccc(Nc3ccc(F)cc3F)cc2CCc2ccc(OC[C@H](O)CO)cc21 [Skepinone-L]: 0.41
